target: D(2) dopamine receptor (Rattus norvegicus); assay: Binding affinity towards Dopamine receptor D2 in the rat striatal membranes using [3H]spiroperidol; type: cell membranes, Striatum, Membrane
Sequence (P61169 whole entry): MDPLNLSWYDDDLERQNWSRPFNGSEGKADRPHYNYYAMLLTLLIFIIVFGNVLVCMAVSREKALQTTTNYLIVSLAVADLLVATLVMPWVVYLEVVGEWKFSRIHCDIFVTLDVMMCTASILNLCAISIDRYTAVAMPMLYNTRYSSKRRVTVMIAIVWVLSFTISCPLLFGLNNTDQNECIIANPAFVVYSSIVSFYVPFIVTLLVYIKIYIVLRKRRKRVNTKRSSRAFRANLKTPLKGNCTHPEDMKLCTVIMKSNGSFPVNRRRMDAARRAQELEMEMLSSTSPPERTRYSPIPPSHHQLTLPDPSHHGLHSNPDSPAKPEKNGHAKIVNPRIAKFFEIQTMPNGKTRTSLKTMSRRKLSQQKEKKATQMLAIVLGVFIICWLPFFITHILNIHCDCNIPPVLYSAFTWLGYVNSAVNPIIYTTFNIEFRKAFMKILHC

{"structureSmilesString": "C[C@@H]1[C@@H]2Cc3ccc(O)cc3[C@]1(C)CCN2CCN1CCCCC1", "systemTested": "D(2) dopamine receptor (Rattus norvegicus)", "Ki": "> 10 µM"}

---

biological target: Sigma 2 receptor; assay: Inhibition of [3H]DTG binding to sigma-2 sites of guinea pig brain membranes
pKi: −log10 of the molar value.
Below is a list of entries, each paired with its recorded pKi value.

{"structureSmilesString": "C[C@@H]1[C@@H]2Cc3ccc(O)cc3[C@]1(C)CCN2CCN1CCCCC1", "pKi": 6.94}
{"structureSmilesString": "CCN(CC)CCN1CC[C@@]2(C)c3cc(O)ccc3C[C@H]1[C@H]2C", "pKi": 6.42}
{"structureSmilesString": "C[C@@H]1[C@@H]2Cc3ccc(O)cc3[C@]1(C)CCN2CCN(C)C", "pKi": 6.46}
{"structureSmilesString": "C[C@@H]1[C@@H]2Cc3ccc(O)cc3[C@]1(C)CCN2CCNc1ccccc1", "pKi": 6.95}
{"structureSmilesString": "C[C@@H]1[C@@H]2Cc3ccc(O)cc3[C@]1(C)CCN2CCN1CCOCC1", "pKi": 6.52}
{"structureSmilesString": "C[C@@H]1[C@@H]2Cc3ccc(O)cc3[C@]1(C)CCN2CCN(C)c1ccccc1", "pKi": 6.91}
